- assayed-target: Neuronal acetylcholine receptor subunit alpha-7 (Rattus norvegicus)
- Sequence (Q05941 whole entry): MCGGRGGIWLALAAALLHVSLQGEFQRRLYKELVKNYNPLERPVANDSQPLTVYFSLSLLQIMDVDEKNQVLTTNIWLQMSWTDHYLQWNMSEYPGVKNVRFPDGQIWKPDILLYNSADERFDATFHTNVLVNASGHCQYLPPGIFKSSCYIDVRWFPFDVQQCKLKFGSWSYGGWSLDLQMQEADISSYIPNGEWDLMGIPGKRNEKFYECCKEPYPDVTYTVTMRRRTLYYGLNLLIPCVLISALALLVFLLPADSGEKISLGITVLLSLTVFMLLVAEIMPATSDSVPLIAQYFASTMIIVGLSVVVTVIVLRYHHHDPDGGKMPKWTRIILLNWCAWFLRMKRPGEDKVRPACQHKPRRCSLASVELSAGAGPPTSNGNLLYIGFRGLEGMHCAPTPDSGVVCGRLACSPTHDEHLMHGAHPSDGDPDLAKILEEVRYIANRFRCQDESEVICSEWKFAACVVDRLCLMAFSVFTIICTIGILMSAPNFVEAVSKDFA
- measurement-notes: Displacement of [125I]alpha-bungarotoxin from alpha7nAChR in rat hippocampus membrane
measured-quantity: pKi
Remember the convention: pKi equals -log10 of concentration in molar.

# mol, pKi
measured = [
    ("COc1ccc(NC(=O)c2cncc(N3CC4CC(C3)N4)c2)cc1OC", 5.64),
    ("O=C(c1cncc(N2CC3CC(C2)N3)c1)N1CCc2ccccc2C1", 6.00),
    ("O=C(Nc1ccc(I)cc1)c1cncc(N2CC3CC(C2)N3)c1", 4.63),
    ("O=C(Nc1ccc2c(c1)OCO2)c1cncc(N2CC3CC(C2)N3)c1", 5.08),
    ("O=C(Nc1ccc(Cl)cc1)c1cncc(N2CC3CC(C2)N3)c1", 4.89),
    ("O=C(Nc1ccc(F)cc1)c1cncc(N2CC3CC(C2)N3)c1", 4.48),
    ("O=C(NCc1ccccc1)c1cncc(N2CC3CC(C2)N3)c1", 5.97),
]

// moving on: another record for pKi
Request: Report pKi for "O=C(Nc1ccccc1F)c1cncc(N2CC3CC(C2)N3)c1" please.
Result: 5.47

====

- assayed-target: Neuronal acetylcholine receptor; alpha4/beta2 (Rattus norvegicus, UniProt P09483+P12390)
- Sequence (P09483 whole entry): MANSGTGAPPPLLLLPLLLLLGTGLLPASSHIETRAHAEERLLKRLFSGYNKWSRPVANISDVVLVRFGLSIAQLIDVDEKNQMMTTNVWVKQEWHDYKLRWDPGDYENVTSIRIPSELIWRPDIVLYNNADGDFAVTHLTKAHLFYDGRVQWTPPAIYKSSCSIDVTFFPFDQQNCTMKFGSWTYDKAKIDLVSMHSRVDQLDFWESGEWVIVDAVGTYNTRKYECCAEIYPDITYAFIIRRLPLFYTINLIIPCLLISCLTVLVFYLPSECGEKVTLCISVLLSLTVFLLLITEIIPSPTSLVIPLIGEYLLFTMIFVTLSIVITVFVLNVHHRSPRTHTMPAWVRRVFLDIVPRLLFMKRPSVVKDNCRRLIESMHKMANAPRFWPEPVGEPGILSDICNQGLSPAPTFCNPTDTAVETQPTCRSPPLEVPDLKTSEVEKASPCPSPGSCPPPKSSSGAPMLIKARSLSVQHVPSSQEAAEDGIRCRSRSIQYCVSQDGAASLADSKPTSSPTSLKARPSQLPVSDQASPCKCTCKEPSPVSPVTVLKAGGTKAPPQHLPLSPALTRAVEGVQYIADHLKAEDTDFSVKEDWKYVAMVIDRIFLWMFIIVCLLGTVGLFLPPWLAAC
- Sequence (P12390 whole entry): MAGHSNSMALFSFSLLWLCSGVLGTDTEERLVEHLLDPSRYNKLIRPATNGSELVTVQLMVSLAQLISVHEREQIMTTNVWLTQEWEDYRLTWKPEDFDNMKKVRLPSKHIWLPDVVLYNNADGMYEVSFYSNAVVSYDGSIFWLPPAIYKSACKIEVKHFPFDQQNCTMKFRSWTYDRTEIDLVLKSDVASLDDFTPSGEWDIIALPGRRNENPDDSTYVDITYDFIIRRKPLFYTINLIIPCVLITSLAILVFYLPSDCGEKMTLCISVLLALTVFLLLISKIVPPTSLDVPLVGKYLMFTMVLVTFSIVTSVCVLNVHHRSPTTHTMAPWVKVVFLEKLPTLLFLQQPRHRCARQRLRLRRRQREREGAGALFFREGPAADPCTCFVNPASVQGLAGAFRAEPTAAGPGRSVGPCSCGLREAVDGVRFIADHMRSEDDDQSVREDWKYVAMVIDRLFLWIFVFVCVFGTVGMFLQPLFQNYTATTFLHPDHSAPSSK
- measurement-notes: Displacement of [3H]cytisine from alpha4beta2 nAChR in rat brain cerebral cortex membrane incubated for 75 mins by scintillation counting method
- Type: cell membranes
measured-quantity: Ki
State the value with its unit after it.

Request: Report Ki for "Clc1ccc(N2CC3CCC(C2)N3)cn1" please.
Result: 0.95 nM

====

- Species on record: Rattus norvegicus
- measurement-notes: Selectivity index, ratio of Ki for alpha7 nAChR in rat hippocampus membrane to Ki for alpha4beta2 nAChR in rat cerebral cortex membrane
- Type: cell membranes
measured-quantity: Ratio Ki
Form: value (number only, do not type unit).

# mol, value
measured = [
    ("O=C(Nc1ccc(F)cc1)c1cncc(N2CC3CC(C2)N3)c1", "3.32e+06"),
    ("O=C(Nc1cccc(F)c1)c1cncc(N2CC3CC(C2)N3)c1", 634000),
    ("O=C(Nc1cccc(Cl)c1)c1cncc(N2CC3CC(C2)N3)c1", 545000),
    ("O=C(Nc1ccc2c(c1)OCO2)c1cncc(N2CC3CC(C2)N3)c1", 79200),
    ("O=C(Nc1ccc(I)cc1)c1cncc(N2CC3CC(C2)N3)c1", 63900),
]

// moving on: another record for Ratio Ki
Request: Report Ratio Ki for "O=C(Nc1ccccc1F)c1cncc(N2CC3CC(C2)N3)c1" please.
Result: 10800

====

Quick reference for pEC50 among some molecules
- assayed-target: Neuronal acetylcholine receptor; alpha4/beta2 (Homo sapiens, UniProt P17787+P43681)
- Sequence (P17787 whole entry): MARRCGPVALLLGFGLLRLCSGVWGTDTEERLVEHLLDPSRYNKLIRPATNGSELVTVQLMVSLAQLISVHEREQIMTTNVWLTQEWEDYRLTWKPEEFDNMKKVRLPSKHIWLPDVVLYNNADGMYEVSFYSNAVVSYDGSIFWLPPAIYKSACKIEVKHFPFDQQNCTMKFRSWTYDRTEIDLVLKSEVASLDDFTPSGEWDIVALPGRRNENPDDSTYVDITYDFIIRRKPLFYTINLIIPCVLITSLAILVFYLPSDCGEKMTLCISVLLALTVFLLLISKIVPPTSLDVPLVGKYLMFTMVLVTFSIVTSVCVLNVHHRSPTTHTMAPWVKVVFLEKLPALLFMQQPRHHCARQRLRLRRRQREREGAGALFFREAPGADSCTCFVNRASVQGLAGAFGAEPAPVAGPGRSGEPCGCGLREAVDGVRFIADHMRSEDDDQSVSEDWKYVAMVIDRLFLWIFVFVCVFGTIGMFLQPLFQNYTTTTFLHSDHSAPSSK
- Sequence (P43681 whole entry): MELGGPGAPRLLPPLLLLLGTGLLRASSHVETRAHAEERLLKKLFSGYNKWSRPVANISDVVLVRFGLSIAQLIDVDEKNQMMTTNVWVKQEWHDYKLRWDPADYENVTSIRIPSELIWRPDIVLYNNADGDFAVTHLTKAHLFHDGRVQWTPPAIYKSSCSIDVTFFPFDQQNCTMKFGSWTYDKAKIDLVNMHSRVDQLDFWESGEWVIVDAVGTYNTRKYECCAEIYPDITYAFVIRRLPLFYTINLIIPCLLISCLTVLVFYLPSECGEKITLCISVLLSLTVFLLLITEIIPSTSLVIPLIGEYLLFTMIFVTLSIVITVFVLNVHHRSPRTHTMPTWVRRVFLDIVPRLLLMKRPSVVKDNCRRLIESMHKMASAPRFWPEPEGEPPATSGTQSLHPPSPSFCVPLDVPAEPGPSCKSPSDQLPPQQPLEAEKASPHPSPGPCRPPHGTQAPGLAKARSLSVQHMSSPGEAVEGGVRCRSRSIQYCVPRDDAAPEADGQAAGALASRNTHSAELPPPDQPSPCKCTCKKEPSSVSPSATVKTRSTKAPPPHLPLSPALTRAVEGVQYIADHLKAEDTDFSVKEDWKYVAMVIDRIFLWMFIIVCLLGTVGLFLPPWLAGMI
- measurement-notes: Agonist activity at human alpha4beta2 nAChR expressed in GH4C1 cells assessed as increase in inward channel current measured after 3 to 4 days at -70 mV holding potential by patch clamp assay
Remember the convention: pEC50 equals -log10 of concentration in molar.

Observe how each entry below is paired with its result.
# mol, value
rows = [
    ("O=C(Nc1ccc(F)cc1)c1cncc(N2CC3CC(C2)N3)c1", 6.28),
    ("O=C(Nc1cccc(Cl)c1)c1cncc(N2CC3CC(C2)N3)c1", 6.00),
]

Request: Report pEC50 for "COc1cccc(NC(=O)c2cncc(N3CC4CC(C3)N4)c2)c1" please.
Result: 6.22

Reference source for all entries: ChEMBL document CHEMBL4359847
